Tested on: SK-MEL-5 melanoma
Experiment: NCI-60 one-dose screen, 48 h (100 = growth as untreated, 0 = no growth, -100 = all killed)
Conditions: 10 µM unless noted
The panel holds about 83,000 compounds, 20% with a hit somewhere; the sample as a whole holds those more often. Activity calls are given as the source filed them. How the source made its calls: active means growth percent below 10; inactive means the rest.
quantityMeasured: growth

Problem: Would you mind telling me what growth value was observed for N=C(N)c1ccc(-c2ccc(-c3ccc(Cl)cc3Cl)s2)cc1 ?
Solution: 89.3% (inactive)

Problem: Moving on to the next compound: CCCNC(=O)Nc1ccc2cc3ccc(NC(=O)NCCC)cc3nc2c1
Solution: 81.8% (inactive)

Problem: Moving on to the next compound: CN(C)CC(C)(C)C(=O)/C=C/c1ccccc1
Solution: -86.8% [25 µM] (active)

Problem: Moving on to the next compound: CN(C)c1ccc(-c2c(C#N)c(N)nn2C(=O)c2ccc(NC(=O)c3ccccn3)cc2)cc1
Solution: 101% (inactive)

Problem: Moving on to the next compound: COc1cc2c(c(OC)c1OC)CCC(c1cccc(C(=O)Nc3cccc(Cl)c3)c1)O2 (centres undefined)
Solution: 63% (inactive)

Problem: Moving on to the next compound: COC(=O)C1Cc2ccccc2CN1C(=O)c1ccc2c(c1)Cc1ccccc1-2 (centres undefined)
Solution: -39.9% [50 µM] (active)

Continuing:
Problem: Would you mind telling me what growth value was observed for CCCCNCCCCCNc1cc(OC)cc2cccnc12 ?
Solution: 94.3% (inactive)

Problem: Moving on to the next compound: C=CCn1c(SCC(=O)Nc2ccc(C(=O)/C=C/c3ccc(Cl)cc3)cc2)nnc1-c1ccc(Br)cc1
Solution: 82.7% (inactive)

Problem: Moving on to the next compound: CC(C)(C)[Si](C)(C)OC1[C@@H](CNC(=O)NC(=O)NC(N)=O)O[C@@H](n2cnc3c(NC(=O)Nc4ccccc4)ncnc32)[C@H]1O[Si](C)(C)C(C)(C)C (some centres undefined)
Solution: 91.8% (inactive)

Problem: Moving on to the next compound: CCOC(=O)c1c2c(n3cccc(F)c13)C(=O)c1ncccc1C2=O
Solution: -23% (active)

----------
System: SK-OV-3 ovarian
Assay: NCI-60 one-dose screen, 48 h
Details: 10 µM unless noted
The panel holds about 83,000 compounds, 20% with a hit somewhere; the sample as a whole holds those more often. Calls of active or inactive are those of the source. The calls were made as follows: active = growth percent below 10; inactive = the rest.
Allowed answers: active, inactive

Example entries begin here.
Problem: Please state the recorded outcome for this molecule: O=C(NNC(=O)c1ccc(NC(=O)c2ccccn2)cc1)Nc1ccc([N+](=O)[O-])cc1
Solution: inactive

Problem: Moving on to the next molecule: COc1cc2c(cc1OCCCN1CCN(CCCOc3cc4c(cc3OC)C(=O)N3CCC[C@H]3C=N4)CC1)C=CC(C)(C)O2
Solution: active

Problem: Moving on to the next molecule: O=C(Nc1nc2cc(C(=O)N3CCN(C(c4ccccc4)c4ccccc4)CC3)ccc2o1)c1ccc(NC2CCCCC2)c([N+](=O)[O-])c1
Solution: inactive

Problem: Moving on to the next molecule: COCCn1cc(-c2nc(-c3cc4cccnc4[nH]3)cs2)c2cc(OC)ccc21
Solution: inactive

Now consider a different molecule.
Problem: Please state the recorded outcome for this molecule: COc1cc2ncnc(Nc3ccc(S(=O)(=O)Nc4cc(C)on4)cc3)c2cc1OCCCN1CCN(c2ccc(F)cc2)CC1
Solution: inactive

----------
Test system: HT29 colon
Assay: NCI-60 one-dose screen, 48 h (100 = growth as untreated, 0 = no growth, -100 = all killed)
Details: 10 µM unless noted
Procedure: Growth inhibition of the HT29 human tumor cell line is measured as a screen for anti-cancer activity. Cells are grown in 96 well plates and exposed to the test compound for 48 hours. Compounds are tested at a single concentration, which is 10^-5 M for most compounds. The reported endpoint is percent growth (GI% or GIPRCNT), where numbers from 0 - 100% represent growth inhibition, and numbers from -100% - 0 represent cell death. For example, a value of 40 represents 60% growth inhibition. […]
Compounds without any hit were thinned out: in the full panel of roughly 83,000, 20% have a hit. Active and inactive are the calls of the source. How the source made its calls: active means growth percent below 10; inactive means the rest.
quantityMeasured: growth

// known answers, use as guide
Problem: Would you mind telling me what growth value was observed for CCN(CC)CCn1c2ccc(O)cc2c2sc3cc(O)ccc3c(=O)c21 ?
Solution: 27.1% (inactive)

Problem: Moving on to the next compound: CC(C)(C)[Si](C)(C)OC1[C@@H](CNC(=O)NC(=O)NC(N)=O)O[C@@H](n2cnc3c(NC(=O)Nc4ccccc4)ncnc32)[C@H]1O[Si](C)(C)C(C)(C)C (some centres undefined)
Solution: 10.5% (inactive)

Problem: Moving on to the next compound: CC1CCN(S(=O)(=O)c2ccc(S(=O)(=O)N3CCCC(c4nc5c(nnn5Cc5cccc(Cl)c5)c(=O)[nH]4)C3)cc2)CC1 (centres undefined)
Solution: 17.1% (inactive)

Problem: Moving on to the next compound: O=CN1N=C(c2cccc(Nc3ccnc4cc(Cl)ccc34)c2)CC1c1ccccc1 (centres undefined)
Solution: -2% (active)

Problem: Moving on to the next compound: O=C(N/N=C/c1ccc(Cl)cc1)c1[nH]c2ccc(Cl)cc2c1-c1ccccc1
Solution: 19.4% (inactive)

Problem: Moving on to the next compound: O=C1c2ccccc2-c2c1c1c(=O)[nH]c3ccccc3c1n2Cc1ccccc1
Solution: 75.6% (inactive)

Problem: Moving on to the next compound: CCCCNC(=O)CC1=C(C)/C(=C/c2[nH]c(-c3ccc[nH]3)cc2OC)N=C1C
Solution: 9.63% (active)

Problem: Moving on to the next compound: O=C1NC(=O)C(Cc2ccc(OCc3ccc(-c4ccc(Cl)cc4Cl)cc3)cc2)S1 (centres undefined)
Solution: 86.3% (inactive)

Then there is this compound:
Problem: Would you mind telling me what growth value was observed for c1ccc(-c2oc(-c3ccccc3)c(CN3CCCCC3)c2CN2CCCCC2)cc1 ?
Solution: 10.9% (inactive)

----------
Test system: NCI-H522 lung
Test: NCI-60 one-dose screen, 48 h
Conditions: 10 µM unless noted
This is part of a sample that, as a whole, favours compounds with a hit. Of some 83,000 tested, about 20% had one in any assay. Active and inactive are the calls of the source. How the source made its calls: active means growth percent below 10; inactive means the rest.
Allowed answers: active, inactive

Example entries begin here.
Problem: Please state the recorded outcome for this molecule: CC(O)(c1ccccc1)C(c1ccccc1)C1CCCCN1 (centres undefined)
Solution: inactive

Problem: Moving on to the next molecule: C#CCOC(=O)/C=C/c1cn(-c2ccccc2)nc1-c1ccc(OC)cc1
Solution: inactive

Problem: Moving on to the next molecule: O=C(OC(CO)C(=O)NC12CC3CC(CC(C3)C1)C2)c1ccc(Cl)cc1 (centres undefined)
Solution: inactive

Problem: Moving on to the next molecule: C=C1C(=O)O[C@H]2[C@H]1CC/C(COC(=O)NCc1ccc(Cn3c(=O)sn(CCCCC)c3=O)cc1)=C\CC[C@@]1(C)O[C@@H]21
Solution: active

Problem: Moving on to the next molecule: Cc1ccc2c(Cn3cc(CSc4nc5ccccc5o4)nn3)cc(=O)oc2c1
Solution: inactive

Problem: Moving on to the next molecule: O=C1/C=C/[C@@H](O)[C@@H]2C[C@@H](O)C[C@H]2/C=C/CCC[C@H](CCc2ccccc2)O1
Solution: active

Continuing:
Problem: Please state the recorded outcome for this molecule: COc1cc(-c2csc(NC(=O)c3ccc(N4CCOCC4)c(C(F)(F)F)c3)n2)cc(OC)c1OC
Solution: inactive

Problem: Moving on to the next molecule: CCN1C(=O)N(CC)C2C1NN=c1s/c(=C\c3ccccc3F)c(=O)n12 (centres undefined)
Solution: active

Problem: Moving on to the next molecule: O=C1c2ccccc2-c2c1c1c(=O)[nH]c3ccccc3c1n2Cc1ccccc1
Solution: inactive

Problem: Moving on to the next molecule: CCCCNC(=O)Oc1ccc(/C(=C(/C)Cc2ccc(OC)cc2)c2ccc(OCCN(CC)CC)cc2)cc1
Solution: inactive

Problem: Moving on to the next molecule: COc1cc(C2CC(c3ccc(Nc4nc(Nc5ccc(Cl)cc5)nc(Nc5ccc(Cl)cc5)n4)cc3)=NN2C(C)=O)cc(OC)c1OC (centres undefined)
Solution: inactive

Problem: Moving on to the next molecule: C#CCOc1cccc(Nc2ncnc3ccc(NC(=O)C=C)cc23)c1
Solution: inactive

Problem: Moving on to the next molecule: COc1ccc(/C=N\Nc2nc(SCCC(C)C)nc(-c3ccc(OC)cc3)c2C#N)cc1
Solution: inactive

Problem: Moving on to the next molecule: CC1(C)COB(OCC(C)(C)COB2OCC(C)(C)CO2)OC1
Solution: inactive

Problem: Moving on to the next molecule: COc1ccc(NC(=O)c2sc3nc(C)c(C(=O)/C=C/c4ccccc4)cc3c2N)cc1
Solution: inactive

Problem: Moving on to the next molecule: CN(C)CC(C)(C)C(=O)/C=C/c1ccccc1
Solution: active

Problem: Moving on to the next molecule: O=C1c2c(c3c4ccccc4[nH]c3c3ccc4ccccc4c23)C(=O)N1CCN1CCNCC1
Solution: inactive

Problem: Moving on to the next molecule: CC(=O)/C(=C\c1c(-c2ccccc2)[nH]c2ccccc12)S(C)(=O)=O
Solution: inactive

Problem: Moving on to the next molecule: Cc1ccccc1/C=C/C(=O)c1cccc(OCCCOc2cccc(C(=O)/C=C/c3ccccc3C)c2)c1
Solution: inactive
